The reported numbers originate from ChEMBL document CHEMBL3751845.

SYSTEM NAME: Cholinesterase (Equus caballus)
Sequence (P81908 whole entry): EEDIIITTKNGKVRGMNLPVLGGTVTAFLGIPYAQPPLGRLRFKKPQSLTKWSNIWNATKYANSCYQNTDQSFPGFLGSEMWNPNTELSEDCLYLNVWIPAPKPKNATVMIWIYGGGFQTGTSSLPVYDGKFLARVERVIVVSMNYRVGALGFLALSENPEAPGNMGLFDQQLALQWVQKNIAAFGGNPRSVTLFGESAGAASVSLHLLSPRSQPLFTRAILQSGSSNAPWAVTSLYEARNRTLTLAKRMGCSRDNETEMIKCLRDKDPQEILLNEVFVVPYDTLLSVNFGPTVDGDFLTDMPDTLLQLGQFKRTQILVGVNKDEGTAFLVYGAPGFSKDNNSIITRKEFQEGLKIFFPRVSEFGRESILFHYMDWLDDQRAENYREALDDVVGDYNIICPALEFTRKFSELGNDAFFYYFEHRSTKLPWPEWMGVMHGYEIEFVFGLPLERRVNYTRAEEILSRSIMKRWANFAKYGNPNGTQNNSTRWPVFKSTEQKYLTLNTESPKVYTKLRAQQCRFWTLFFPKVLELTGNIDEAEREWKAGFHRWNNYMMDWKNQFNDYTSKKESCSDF
TEST SUMMARY: Inhibition of equine serum BChE using butyrylthiocholine iodide as substrate preincubated for 10 mins followed by substrate addition by Ellman's method
Task for the reader: assign each of the following compounds its reported IC50.
Give a bare numeral; the unit µM is implied.

Report IC50 for Clc1ccccc1CN(Cc1cccnc1)C1=NCC(CI)S1.I (stereo not given) please.
21

Report IC50 for COc1ccc(CN(Cc2ccccc2)C2=NCC(CI)S2)cc1.I (stereo not given) please.
25

Report IC50 for Br.COc1ccc(CN(Cc2ccccc2)C2=NCC(CBr)S2)cc1 (stereo not given) please.
34

Report IC50 for CC(C)(C)c1ccc(CN(Cc2ccccc2)C2=NCC(CI)S2)cc1.I (stereo not given) please.
0.77

Report IC50 for Br.Fc1ccc(CN(Cc2ccccc2)C2=NCC(CBr)S2)cc1 (stereo not given) please.
38

Report IC50 for Fc1ccc(CN(Cc2ccccc2)C2=NCC(CI)S2)cc1.I (stereo not given) please.
17

Report IC50 for COc1ccc(CN(Cc2ccccc2)C2=NCC(CI)S2)cc1OC (stereo not given) please.
20

Report IC50 for Br.BrCC1CN=C(N(Cc2ccccc2)Cc2ccccc2)S1 (stereo not given) please.
26

Report IC50 for Br.Clc1ccc(CN(Cc2cccnc2)C2=NCC(CBr)S2)cc1 (stereo not given) please.
30

Report IC50 for Br.CC(C)(C)c1ccc(CN(Cc2ccccc2)C2=NCC(CBr)S2)cc1 (stereo not given) please.
2.34

Report IC50 for I.ICC1CN=C(N(Cc2ccccc2)Cc2ccccc2)S1 (stereo not given) please.
25

Report IC50 for Br.CC(C)c1ccc(CN(Cc2ccccc2)C2=NCC(CBr)S2)cc1 (stereo not given) please.
11

Report IC50 for CC(C)c1ccc(CN(Cc2ccccc2)C2=NCC(CI)S2)cc1.I (stereo not given) please.
4.14
